# assay-notes: Permeability and transporter substrate evaluation, Caco-2 monolayer
# Format: in vitro ADME
# setup-conditions: human, Caco-2, Table 4 experimental system; Caco-2, 2.00 µM, 120 min
property: Papp B→A at 2 h, 2 µM (×10⁻⁶ cm/s)
Numbers only, in ×10⁻⁶ cm/s.

Prompt: Reported Papp B→A at 2 h, 2 µM, compound COCc1cc(C(=O)Nc2cc(C3CCC(OC(=O)NC(C)C)C3)[nH]n2)n(C)n1 (stereo not shown) [PF-07104091, reference compound] : ____
Response: 25.5

###

I'd be grateful if you could share measured Remaining amount% at 60 min Dog for these entries.
# assay-notes: In-vitro liver microsomal stability, dog
# Format: in vitro ADME
# setup-conditions: dog liver microsomes 0.5 mg/mL, 1 µM, NADPH 1 mM, 37 °C
Answers are plain numbers, in %.

Past entries and their recorded results:
[
  {
    "compound": "COCc1cc(C(=O)Nc2cc([C@H]3CC[C@@H](OC(=O)NC45CC6CC(CC(C6)C4)C5)C3)[nH]n2)n(C)n1 [Compound 6]",
    "Remaining amount% at 60 min Dog / %": 30.3
  },
  {
    "compound": "COCc1cc(C(=O)Nc2cc([C@H]3CC[C@@H](OC(=O)NC(C)C#N)C3)[nH]n2)n(C)n1 (stereo partly shown) [Compound 1]",
    "Remaining amount% at 60 min Dog / %": 92.0
  },
  {
    "compound": "Cn1nc(CS(C)(=O)=O)cc1C(=O)Nc1cc([C@@H]2C[C@H](OC(=O)N3CCC3(C)C)CO2)[nH]n1 [Compound 27]",
    "Remaining amount% at 60 min Dog / %": 96.7
  },
  {
    "compound": "CC(C)NC(=O)O[C@@H]1CC[C@H](c2cc(Nc3ccc(N4CCN(C)CC4)cc3)n[nH]2)C1 [Compound 9]",
    "Remaining amount% at 60 min Dog / %": 7.34
  },
  {
    "compound": "COCc1cc(C(=O)Nc2cc([C@H]3CC[C@@H](OC(=O)NCC=C(F)F)C3)[nH]n2)n(C)n1 [Compound 3]",
    "Remaining amount% at 60 min Dog / %": 86.7
  },
  {
    "compound": "C#CC(C)NC(=O)O[C@@H]1CC[C@H](c2cc(NC(=O)c3cc(COC)nn3C)n[nH]2)C1 (stereo partly shown) [Compound 4]",
    "Remaining amount% at 60 min Dog / %": 77.9
  },
  {
    "compound": "CC(C)NC(=O)O[C@@H]1CC[C@H](c2cc(NC(=O)c3cc(CS(C)(=O)=O)nn3C)n[nH]2)C1 [Compound 7]",
    "Remaining amount% at 60 min Dog / %": 101
  },
  {
    "compound": "COCc1cc(C(=O)Nc2cc([C@H]3CC[C@@H](OC(=O)N(C)C4CCC(=C(F)F)CC4)C3)[nH]n2)n(C)n1 (stereo partly shown) [Compound 2]",
    "Remaining amount% at 60 min Dog / %": 12.7
  }
]

Please give Remaining amount% at 60 min Dog, item by item, for the list that follows.
1. COCc1cc(C(=O)Nc2cc([C@H]3CC[C@@H](OC(=O)N4CC5(CCN(C)CC5)C4)C3)[nH]n2)n(C)n1 [Compound 10]
2. COCc1cc(C(=O)Nc2cc([C@H]3C[C@@H](F)[C@@H](OC(=O)NC(C)C)C3)[nH]n2)n(C)n1 [Compound 11]

Response:
1. 95
2. 99
